Source of measurements: paper PMC11954145

Assay: Lipophilicity determination by RP-HPLC (log k, log D)
Format: physicochemical
Details: RP-HPLC C18, MeOH 72 % / acetate-buffered saline pH 7.4
Listing of entries alongside the reported log D7.4.
Write the number on its own, no unit after it.

# count of solved cases: 3
>>> readout_value("O=C(Nc1cccc([N+](=O)[O-])c1)c1c(O)ccc2ccccc12")
0.3058
>>> readout_value("O=C(Nc1ccc([N+](=O)[O-])c(C(F)(F)F)c1)c1c(O)ccc2ccccc12")
0.3220
>>> readout_value("Cc1ccccc1NC(=O)c1c(O)ccc2ccccc12")
0.0838

What does the data say about its log D7.4? Entry: COc1ccc(Br)cc1NC(=O)c1c(O)ccc2ccccc12
0.5835

What does the data say about its log D7.4? Entry: Cc1cc(C)cc(NC(=O)c2c(O)ccc3ccccc23)c1
0.3480

What does the data say about its log D7.4? Entry: COc1ccc(NC(=O)c2c(O)ccc3ccccc23)cc1
-0.0382

What does the data say about its log D7.4? Entry: O=C(Nc1ccc([N+](=O)[O-])cc1)c1c(O)ccc2ccccc12
0.0879

What does the data say about its log D7.4? Entry: COc1cc(NC(=O)c2c(O)ccc3ccccc23)cc(OC)c1
0.0490

What does the data say about its log D7.4? Entry: COc1ccc(Cl)c(NC(=O)c2c(O)ccc3ccccc23)c1
0.4593

---

Test system: Enterococcus faecalis ATCC 29212
Assay: Antibacterial screening, broth microdilution MIC
Type: cell-based
Conditions: ATCC29212, ATCC 29212, 24 h at 37 °C, read-out: MIC E. faecalis
Listing of entries alongside the reported MIC.
Answer with a number only, understood to be in µM.

>>> readout_value("Cc1cc(C)cc(NC(=O)c2c(O)ccc3ccccc23)c1")
879

What does the data say about its MIC? Entry: O=C(Nc1ccccc1[N+](=O)[O-])c1c(O)ccc2ccccc12
830

What does the data say about its MIC? Entry: COc1ccc(C)cc1NC(=O)c1c(O)ccc2ccccc12
833

---

Tested on: MRSA SA 3202
Assay: Antibacterial screening, broth microdilution MIC
Type: cell-based, methicillin-resistant S. aureus
Settings: Staphylococcus aureus, clinical isolate, 24 h at 37 °C, read-out: MIC MRSA SA 3202
Listing of entries alongside the reported log10(MIC).
// do not treat as linear: log10 of MIC, unit µM

# count of solved cases: 6
>>> readout_value("COc1ccc(NC(=O)c2c(O)ccc3ccccc23)cc1C(F)(F)F")
1.95
>>> readout_value("COc1ccc(C)c(NC(=O)c2c(O)ccc3ccccc23)c1")
2.32
>>> readout_value("Cc1cc(C)cc(NC(=O)c2c(O)ccc3ccccc23)c1")
1.74
>>> readout_value("CC1(C)S[C@@H]2[C@H](NC(=O)[C@H](N)c3ccccc3)C(=O)N2[C@H]1C(=O)O [AMP, ampicillin, reference compound]")
1.66
>>> readout_value("Cc1ccc(C(F)(F)F)cc1NC(=O)c1c(O)ccc2ccccc12")
0.46
>>> readout_value("Cc1cc(C)c(NC(=O)c2c(O)ccc3ccccc23)c(C)c1")
2.62

What does the data say about its log10(MIC)? Entry: Cc1ccc(C)c(NC(=O)c2c(O)ccc3ccccc23)c1
2.04

What does the data say about its log10(MIC)? Entry: COc1cccc(C)c1NC(=O)c1c(O)ccc2ccccc12
2.92

---

Listing of entries alongside the reported log D6.5.
Assay: Lipophilicity determination by RP-HPLC (log k, log D)
Format: physicochemical
Settings: RP-HPLC C18, MeOH 72 % / acetate-buffered saline pH 6.5

>>> readout_value("COc1ccc(NC(=O)c2c(O)ccc3ccccc23)cc1")
-0.0491

What does the data say about its log D6.5? Entry: Cc1ccc(NC(=O)c2c(O)ccc3ccccc23)cc1C(F)(F)F
0.4621

What does the data say about its log D6.5? Entry: COc1ccc(NC(=O)c2c(O)ccc3ccccc23)cc1C(F)(F)F
0.1704

What does the data say about its log D6.5? Entry: COc1ccc(OC)c(NC(=O)c2c(O)ccc3ccccc23)c1
0.3263

What does the data say about its log D6.5? Entry: COc1ccccc1NC(=O)c1c(O)ccc2ccccc12
0.3015

What does the data say about its log D6.5? Entry: O=C(Nc1ccccc1[N+](=O)[O-])c1c(O)ccc2ccccc12
0.3077

What does the data say about its log D6.5? Entry: Cc1ccccc1NC(=O)c1c(O)ccc2ccccc12
0.0745

What does the data say about its log D6.5? Entry: COc1ccc(Cl)c(NC(=O)c2c(O)ccc3ccccc23)c1
0.4607

---

Listing of entries alongside the reported MIC.
System: Mycobacterium kansasii DSM 44162
Assay: Antimycobacterial screening, broth dilution MIC
Type: cell-based
Conditions: DSM44162, 336 h, DSM 44162, 14 days at 37 °C, read-out: MIC M. kansasii
Answer with a number only, understood to be in µM.

>>> readout_value("Cc1ccc(NC(=O)c2c(O)ccc3ccccc23)cc1C(F)(F)F")
741
>>> readout_value("Cc1ccc(C)c(NC(=O)c2c(O)ccc3ccccc23)c1")
110
>>> readout_value("COc1ccc(C(F)(F)F)cc1NC(=O)c1c(O)ccc2ccccc12")
709
>>> readout_value("Cc1cccc(C)c1NC(=O)c1c(O)ccc2ccccc12")
879

What does the data say about its MIC? Entry: O=C(Nc1ccc([N+](=O)[O-])cc1)c1c(O)ccc2ccccc12
415

---

Listing of entries alongside the reported log k (logarithm of the capacity factor).
Assay: Lipophilicity determination by RP-HPLC (log k, log D)
Assay type: physicochemical
Conditions: RP-HPLC C18, MeOH 72 % / water 28 %
Write the number on its own, no unit after it.

# count of solved cases: 5
>>> readout_value("COc1ccc(C)cc1NC(=O)c1c(O)ccc2ccccc12 [Compound 15]")
0.4932
>>> readout_value("O=C(Nc1ccccc1[N+](=O)[O-])c1c(O)ccc2ccccc12 [Compound 24]")
0.3033
>>> readout_value("Cc1cccc(C)c1NC(=O)c1c(O)ccc2ccccc12 [Compound 12]")
0.0785
>>> readout_value("COc1ccccc1NC(=O)c1c(O)ccc2ccccc12 [Compound 2]")
0.3181
>>> readout_value("COc1cccc(C)c1NC(=O)c1c(O)ccc2ccccc12 [Compound 16]")
0.0124

What does the data say about its log k (logarithm of the capacity factor)? Entry: Cc1ccc(NC(=O)c2c(O)ccc3ccccc23)cc1 [Compound 10]
0.1658

What does the data say about its log k (logarithm of the capacity factor)? Entry: Cc1ccccc1NC(=O)c1c(O)ccc2ccccc12 [Compound 8]
0.0858

---

Assay: Lipophilicity determination by RP-HPLC (log k, log D)
Type: physicochemical
Conditions: RP-HPLC C18, MeOH 72 % / water 28 %
Assign classes using reported log k (logarithm of the capacity factor) values and the ranges bottom = under 0.09, middle = from 0.09 up to 0.3, top = 0.3 and over, please.

Take a look at these entries with their results.
>>> label_value("COc1cc(NC(=O)c2c(O)ccc3ccccc23)cc(OC)c1")
"bottom"
>>> label_value("Cc1cc(C)c(NC(=O)c2c(O)ccc3ccccc23)c(C)c1")
"middle"

// bin(item) where item = COc1ccc(OC)c(NC(=O)c2c(O)ccc3ccccc23)c1
top

// bin(item) where item = COc1cccc(NC(=O)c2c(O)ccc3ccccc23)c1
middle

// bin(item) where item = Cc1cc(C)cc(NC(=O)c2c(O)ccc3ccccc23)c1
top

// bin(item) where item = COc1cc(NC(=O)c2c(O)ccc3ccccc23)cc(OC)c1OC
bottom

// bin(item) where item = COc1ccc(C(F)(F)F)cc1NC(=O)c1c(O)ccc2ccccc12
top

// bin(item) where item = O=C(Nc1ccc([N+](=O)[O-])cc1)c1c(O)ccc2ccccc12
middle

---

System: Mycobacterium tuberculosis ATCC 25177/H37Ra
Experiment: Antimycobacterial screening, broth dilution MIC (Alamar blue)
Assay type: cell-based
Conditions: 336 h, H37Ra, 14 days at 37 °C, Alamar blue, read-out: MIC M. tuberculosis
Friendly reminder: MIC below 400 µM is MET, at or above is NOT MET.

Take a look at these entries with their results.
>>> label_value("COc1ccc(NC(=O)c2c(O)ccc3ccccc23)cc1C(F)(F)F")
"MET"
>>> label_value("COc1ccc(C(F)(F)F)cc1NC(=O)c1c(O)ccc2ccccc12")
"MET"
>>> label_value("Cc1ccc(NC(=O)c2c(O)ccc3ccccc23)cc1")
"MET"
>>> label_value("Cc1cc(C)cc(NC(=O)c2c(O)ccc3ccccc23)c1")
"NOT MET"
>>> label_value("COc1ccc(C)cc1NC(=O)c1c(O)ccc2ccccc12")
"NOT MET"

Hi there! Is MIC for Cc1ccc(NC(=O)c2c(O)ccc3ccccc23)cc1C(F)(F)F below 400 µM, do you know?
MET

Hi there! Is MIC for Cc1ccc(C)c(NC(=O)c2c(O)ccc3ccccc23)c1 below 400 µM, do you know?
NOT MET

Hi there! Is MIC for COc1ccccc1NC(=O)c1c(O)ccc2ccccc12 below 400 µM, do you know?
NOT MET

Hi there! Is MIC for O=C(Nc1cccc([N+](=O)[O-])c1)c1c(O)ccc2ccccc12 below 400 µM, do you know?
MET
